# Assay text: Half life at the buffer concentration of 0.02 M.
# Assay type: ADME
Readout: half-life (min)
Numbers only, in min.

Param item = CC(C)NC(=O)OCc1c(COC(=O)NC(C)C)c(-c2cc[n+](C)c(F)c2)n2c1CCC2.[I-] ; retrieve measured half-life.
52.5

====

# Assay text: Half life at the pH 2.0
# Format: ADME
# Recorded conditions: buffer
Readout: half-life (min)
Give bare numbers, in min.

Param item = CC(C)NC(=O)OCc1c(COC(=O)NC(C)C)c(-c2ccn(C)c(=O)c2)n2c1CCC2 ; retrieve measured half-life.
2.11

====

# Assay text: Half life at the pH 6.5
# Assay type: ADME
# Recorded conditions: buffer
Readout: half-life
The answer should read as a number with its unit following.

Param item = CC(C)NC(=O)OCc1c(COC(=O)NC(C)C)c(-c2cc[n+](C)c(F)c2)n2c1CCC2.[I-] ; retrieve measured half-life.
45.3 min

====

# Assay text: Hydrolysis were done at 25 degree C in 0.05 M phosphate buffer (pH 7.4)
# Format: ADME
Readout: K obs
The answer should read as a number with its unit following.

CCOC(=O)c1cc(Cl)[n+](C)c(Cl)c1.CS(=O)(=O)[O-] ... 0.114 min⁻¹

List reported K obs for each of these molecules:
1. Cc1ccc(F)[n+](C)c1.O=S(=O)([O-])C(F)(F)F
2. CCOC(=O)c1cc[n+](C)c(Cl)c1.O=S(=O)([O-])C(F)(F)F
3. Cc1ccc(Cl)[n+](C)c1.O=S(=O)([O-])C(F)(F)F
4. CCOC(=O)c1cc[n+](C)c(Br)c1.O=S(=O)([O-])C(F)(F)F
5. Cc1cc(Br)c(Cl)[n+](C)c1.O=S(=O)([O-])C(F)(F)F
6. Cc1cc(Cl)c(Cl)[n+](C)c1.O=S(=O)([O-])C(F)(F)F

0.0605 min⁻¹
0.055 min⁻¹
0.000708 min⁻¹
0.0002 min⁻¹
0.041 min⁻¹
0.000917 min⁻¹

====

# Assay text: Half life at the pH 3.0
# Format: ADME
# Recorded conditions: buffer
Readout: half-life (min)
Answers are plain numbers, in min.

Param item = CC(C)NC(=O)OCc1c(COC(=O)NC(C)C)c(-c2ccn(C)c(=O)c2)n2c1CCC2 ; retrieve measured half-life.
22.8

====

# Assay text: Half life at the concentration of 0.02 M.
# Assay type: ADME
Readout: half-life (h)
Give bare numbers, in h.

Param item = CC(C)NC(=O)OCc1c(COC(=O)NC(C)C)c(-c2cc[n+](C)c(F)c2)n2c1CCC2.[I-] ; retrieve measured half-life.
2.22

====

# Assay text: Half life at the ionic strength 0.50 M NaCl
# Type: ADME
Readout: half-life (h)
Give bare numbers, in h.

Param item = CC(C)NC(=O)OCc1c(COC(=O)NC(C)C)c(-c2cc[n+](C)c(F)c2)n2c1CCC2.[I-] ; retrieve measured half-life.
1.05

====

# Assay text: Half life at the ionic strength 0.10 M NaCl
# Type: ADME
Readout: half-life (min)
Numbers only, in min.

Param item = CC(C)NC(=O)OCc1c(COC(=O)NC(C)C)c(-c2cc[n+](C)c(F)c2)n2c1CCC2.[I-] ; retrieve measured half-life.
29.1

====

# Assay text: Half life at the concentration of 0.05 M.
# Format: ADME
Readout: half-life

Param item = CC(C)NC(=O)OCc1c(COC(=O)NC(C)C)c(-c2ccn(C)c(=O)c2)n2c1CCC2 ; retrieve measured half-life.
22.8 min
